Protocol Details: Oral bioavailability in dog at 10 mg/kg
Assay type: ADME, organism-based, Canis lupus familiaris
Condition Label: in vivo
Readout Name: bioavailability

Input `CN[C@@H]1CCN(c2cc(NCC3CC3)nc(N)n2)C1` . Output bioavailability: 39%

###

System: Rattus norvegicus
Protocol Details: Toxicity in po dosed rat assessed as lymphoid depletion from thymus for 4 days
Assay type: organism-based
Condition Label: in vivo, 96 h
Readout Name: Activity

Input `CNC1CN(c2cc(NCC(C)(C)C)nc(N)n2)C1` . Output Activity: Non-toxic

Input `CN1C[C@@H]2CN(C(=N)c3nc4cc(F)c(F)cc4[nH]3)C[C@@H]2C1` . Output Activity: Dose-dependent effect

Input `CN1C[C@@H]2CN(C(=O)c3nc4cc(F)c(F)cc4[nH]3)C[C@@H]2C1` . Output Activity: Dose-dependent effect

Input `CNC1CN(c2cc(NCCC(C)(C)C)nc(N)n2)C1` . Output Activity: Non-toxic

###

Protocol Details: Volume of distribution in dog blood at 1 mg/kg, iv and 10 mg/kg, po
Assay type: ADME, organism-based, Canis lupus familiaris
Readout Name: Vd (L/kg)
Give bare numbers, in L/kg.

Input `CN[C@@H]1CCN(c2cc(NCC3CC3)nc(N)n2)C1` . Output Vd: 14

###

Protocol Details: Blood clearance in dog at 1 mg/kg, iv and 10 mg/kg, po
Format: ADME, organism-based, Canis lupus familiaris
Readout Name: clearance (mL/min/kg)
One number for each entry, in mL/min/kg.

Input CN[C@@H]1CCN(c2cc(NCC3CC3)nc(N)n2)C1 [ADRIFORANT] . Output clearance: 7

###

Measured Target: UniProt Q9H3N8
Protocol Details: Antagonist activity at H4R in human eosinophils assessed as inhibition of histamine-induced CD11b upregulation
Assay type: functional
Readout Name: IC50

Input `CN[C@@H]1CCN(c2cc(NCC3CC3)nc(N)n2)C1` . Output IC50: 4.9 nM

###

Protocol Details: Half life in rat at 1 mg/kg, iv and 1 mg/kg, po
Type: ADME, organism-based
Condition Label: in vivo
Please respond with reported half-life for every item in the list.
Give bare numbers, in h.

Input `CNC1CN(c2cc(NCC(C)(C)C)nc(N)n2)C1` . Output half-life: 6.9

Input `CN1C[C@@H]2CN(C(=O)c3nc4cc(F)c(F)cc4[nH]3)C[C@@H]2C1` . Output half-life: 0.8

Further cases:
Input `CN1C[C@@H]2CN(C(=N)c3nc4cc(F)c(F)cc4[nH]3)C[C@@H]2C1` . Output half-life: 12

###

Protocol Details: Half life in dog at 3 mg/kg, iv
Format: ADME, organism-based, Canis lupus familiaris
Parameters: dose 3 mg/kg, route intravenous
Condition Label: in vivo
Readout Name: half-life (h)
Numbers only, in h.

Input `CNC1CN(c2cc(NCC(C)(C)C)nc(N)n2)C1` . Output half-life: 19

###

Measured Target: Histamine H4 receptor (Homo sapiens)
Sequence (Q9H3N8 whole entry): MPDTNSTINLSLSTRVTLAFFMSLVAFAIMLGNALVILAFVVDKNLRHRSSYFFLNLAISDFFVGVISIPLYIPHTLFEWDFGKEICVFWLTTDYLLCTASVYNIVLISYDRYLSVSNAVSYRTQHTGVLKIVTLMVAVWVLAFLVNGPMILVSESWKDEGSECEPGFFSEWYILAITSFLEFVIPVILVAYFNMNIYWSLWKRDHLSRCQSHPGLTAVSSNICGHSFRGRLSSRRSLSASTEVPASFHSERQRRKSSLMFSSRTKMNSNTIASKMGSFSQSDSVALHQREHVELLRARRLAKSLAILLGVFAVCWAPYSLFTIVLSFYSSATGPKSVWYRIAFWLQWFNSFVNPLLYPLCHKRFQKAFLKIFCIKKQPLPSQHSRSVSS
Protocol Details: Displacement of [3H]-histamine from human H4R expressed in HEK293T cells
Type: cell-based, HEK-293T
Readout Name: Ki (nM)
Numbers only, in nM.

Input CN[C@@H]1CCN(c2cc(NCC3CC3)nc(N)n2)C1 [ADRIFORANT] . Output Ki: 6.17

###

Protocol Details: Ratio of drug level in blood to plasma in dog at 1 mg/kg, iv and 10 mg/kg, po
Assay type: ADME, organism-based, Canis lupus familiaris
Readout Name: blood plasma ratio
One number for each entry.

Input CN[C@@H]1CCN(c2cc(NCC3CC3)nc(N)n2)C1 [ADRIFORANT] . Output blood plasma ratio: 1
